# target.entity: HDAC8 (Homo sapiens (Human), UniProt Q9BY41)
# Sequence (Q9BY41 whole entry): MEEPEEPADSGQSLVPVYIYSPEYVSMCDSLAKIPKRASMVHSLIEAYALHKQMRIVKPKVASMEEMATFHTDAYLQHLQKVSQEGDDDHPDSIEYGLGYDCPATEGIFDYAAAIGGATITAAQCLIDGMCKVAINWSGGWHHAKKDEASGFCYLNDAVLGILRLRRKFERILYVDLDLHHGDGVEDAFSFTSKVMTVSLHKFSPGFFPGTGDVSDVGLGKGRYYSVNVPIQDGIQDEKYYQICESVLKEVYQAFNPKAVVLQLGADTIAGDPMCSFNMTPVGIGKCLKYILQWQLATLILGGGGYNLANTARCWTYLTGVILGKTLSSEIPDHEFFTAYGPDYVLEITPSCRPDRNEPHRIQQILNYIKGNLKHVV
# test.details: Inhibition of HDAC8
# Assay type: biochemical
# test.settings: inhibition of HDAC8; footnote: (Tables 11-13)
Parameter A (relative potency to PCI34051): see the listing below.
value.type: A (relative potency to PCI34051)

compound | value.type | obs.value
COc1ccc(/C=C/C(=O)NO)c(-c2ccc3c(c2)OCO3)c1 | A (relative potency to PCI34051) | 1.86
COc1ccc(/C=C/C(=O)NO)c(-c2cccs2)c1 | A (relative potency to PCI34051) | 1.43
COc1cc(Nc2c(/C=C/C(=O)NO)ccc(OC)c2OC)cc(OC)c1OC [Compound 15d] | A (relative potency to PCI34051) | 0.44
COc1ccc(Nc2cc(OC)ccc2/C=C/C(=O)NO)cc1 | A (relative potency to PCI34051) | 0.30
COc1ccc(/C=C/C(=O)NO)c(-c2cnc3ccccc3c2)c1 | A (relative potency to PCI34051) | 0.63
